For each entry below, report its kon value.
target: T1, SARS-CoV-2 WA-1 RBD (SARS-CoV-2, UniProt P0DTC2 331-527); test: BLI; conditions: both partners purified
T1 construct: source: Expi293F, purified (Ni-NTA)
Answer with a number only, understood to be in M⁻¹ s⁻¹.

# input For the binder WRAIR-5001 (antibody, V domains shown, also called CoV_5001; source: Expi293F, transfected, purified (Protein A magnetic beads)) VH: QVQLVQSGAEVKKPGASVKLSCKASGYTFTSYSINWVRQAPGQGLEWMGWVNPSNGVTVYAQKFQGRVTMTRDTSTSTAYMELSSLRFEDTAVYYCARERDQLVVYFDHWGQGALVTVSS VL: SYELTQPRSVSVSPGQTARITCGGDNIASKNVHWYQQKLAQAPVLVIYYDSDRPSGIPERFSGSNSGNTATLTISGVEAGDEADYYCQVWDSYSGHHVLFGGGTRLTVLG , give its measured kon value.
# output 209000

# input Name the recorded kon of the binder listed here: WRAIR-5021 (antibody, V domains shown, also called CoV_5021; source: Expi293F, transfected, purified (Protein A magnetic beads)) VH: QVQLQESGPGLVKPSETLSLTCAVSGYSISSGYYWGWIRQPPGKGLEYIGYFSGTTGSTYYNPSLKSRVTISKDTSKNQFSLKLNSVTAADTAVYYCARQPPRFDVWGPGVLVTVST VL: DIQMTQSPSSLSASVGDTVTITCRASQGISNFLNWYQQKPGKAPKLLIYDASRLESGVPSRFSGSGSGTEFTLTISSLQPEDFATYHCLQYDSDPFTFGPGTKLDIKR
# output 325000

# input Find the measured kon of WRAIR-5020 (antibody, V domains shown, also called CoV_5020; source: Expi293F, transfected, purified (Protein A magnetic beads)) VH: QVQLQESGPGLVKPSETLSLTCAVSGASISSYWWGWIRQPPGKGLEWIGRISGSSGSTSYNPSLKSRVTISTDTSKNQFSLKLSSVTAADTAVYYCASRITIFGLLRSYWGQGVLVTVSS VL: EIVMTQSPATLSLSPRERATLSCRASQSVSSNLAWYQQKPGQAPRLLIYYASNRATGIPDRFSGSGSGTDFTLTISSLEPEDVGLYYCQQESNWPWTFGQGTKVEIKR and report it.
# output 210000

# input Provide measured kon value, entry: WRAIR-5004 (antibody, V domains shown, also called CoV_5004; source: Expi293F, transfected, purified (Protein A magnetic beads)) VH: QVQLVQSGAEIKQPGASVKLSCKASGYTFTTYYIHWVRQAPGQGLEWIGLISPYNGNRGYAQNFQGRVTITTDTSTSTGYMELSSLRSEDTAVYYCTRERVVAAAGYFDYWGQGVLVTVSS VL: SYELTQPPSVSVSPGQTARITCGGDNIGSKNVQWYQQKPAQAPVLVIYDDSERPSGIPERFSGSNSGNTATLTISGVEAGDEAGYSCQVWDSSPDHYIFGAGTRLTVLG
# output 199000

# input State its kon: WRAIR-5011 (antibody, V domains shown, also called CoV_5011; source: Expi293F, transfected, purified (Protein A magnetic beads)) V domain 1: EVQLVQSGAEIKQPGASVKLSCKASGYTFTSYYIHWVRQAPGQGLEWIGLISPYNGNRAYAQNFQGRVTITTDTSTSTVYMELSSLKSEDTAVYYCAGEEYSNYGYFDLWGPGTPITISS V domain 2: SYELTQPPSVSVSPGQTARITCGGDNIGSKNVQWYQQKPAQAPVLVIYDDSERPSGIPERFSGSNSGNTATLTISGVEAGDEADYYCQVWDSSGDHYIFGAGTRLTVLG
# output 215000

# input Give the reported value of kon for this record: WRAIR-5005 (antibody, V domains shown, also called CoV_5005; source: Expi293F, transfected, purified (Protein A magnetic beads)) VH: QVQLQESGPGLVKPSETLSLTCAVSGSSVNSGYGWTWLRQPPGKGLEWIGYIGGGSGSTIYNPSLKSRLTISKDTSKNQFSLKLSSVTAADTAVYYCASLDYGTTYSWFDVWGPGVLVTVSS VL: SYELTQPRSVSVSPGQMARITCGGDNIGSKSVQWYQHKPPQAPVLVIYADSERPSGIPERFSGSNSGNTATLTISGVEAGDEADYYCQVWDSSSDVLFGGGTRLTVLG
# output 209000
